Molecular target: ROCK2 (Homo sapiens, UniProt O75116)
Sequence (O75116 whole entry, species assumed): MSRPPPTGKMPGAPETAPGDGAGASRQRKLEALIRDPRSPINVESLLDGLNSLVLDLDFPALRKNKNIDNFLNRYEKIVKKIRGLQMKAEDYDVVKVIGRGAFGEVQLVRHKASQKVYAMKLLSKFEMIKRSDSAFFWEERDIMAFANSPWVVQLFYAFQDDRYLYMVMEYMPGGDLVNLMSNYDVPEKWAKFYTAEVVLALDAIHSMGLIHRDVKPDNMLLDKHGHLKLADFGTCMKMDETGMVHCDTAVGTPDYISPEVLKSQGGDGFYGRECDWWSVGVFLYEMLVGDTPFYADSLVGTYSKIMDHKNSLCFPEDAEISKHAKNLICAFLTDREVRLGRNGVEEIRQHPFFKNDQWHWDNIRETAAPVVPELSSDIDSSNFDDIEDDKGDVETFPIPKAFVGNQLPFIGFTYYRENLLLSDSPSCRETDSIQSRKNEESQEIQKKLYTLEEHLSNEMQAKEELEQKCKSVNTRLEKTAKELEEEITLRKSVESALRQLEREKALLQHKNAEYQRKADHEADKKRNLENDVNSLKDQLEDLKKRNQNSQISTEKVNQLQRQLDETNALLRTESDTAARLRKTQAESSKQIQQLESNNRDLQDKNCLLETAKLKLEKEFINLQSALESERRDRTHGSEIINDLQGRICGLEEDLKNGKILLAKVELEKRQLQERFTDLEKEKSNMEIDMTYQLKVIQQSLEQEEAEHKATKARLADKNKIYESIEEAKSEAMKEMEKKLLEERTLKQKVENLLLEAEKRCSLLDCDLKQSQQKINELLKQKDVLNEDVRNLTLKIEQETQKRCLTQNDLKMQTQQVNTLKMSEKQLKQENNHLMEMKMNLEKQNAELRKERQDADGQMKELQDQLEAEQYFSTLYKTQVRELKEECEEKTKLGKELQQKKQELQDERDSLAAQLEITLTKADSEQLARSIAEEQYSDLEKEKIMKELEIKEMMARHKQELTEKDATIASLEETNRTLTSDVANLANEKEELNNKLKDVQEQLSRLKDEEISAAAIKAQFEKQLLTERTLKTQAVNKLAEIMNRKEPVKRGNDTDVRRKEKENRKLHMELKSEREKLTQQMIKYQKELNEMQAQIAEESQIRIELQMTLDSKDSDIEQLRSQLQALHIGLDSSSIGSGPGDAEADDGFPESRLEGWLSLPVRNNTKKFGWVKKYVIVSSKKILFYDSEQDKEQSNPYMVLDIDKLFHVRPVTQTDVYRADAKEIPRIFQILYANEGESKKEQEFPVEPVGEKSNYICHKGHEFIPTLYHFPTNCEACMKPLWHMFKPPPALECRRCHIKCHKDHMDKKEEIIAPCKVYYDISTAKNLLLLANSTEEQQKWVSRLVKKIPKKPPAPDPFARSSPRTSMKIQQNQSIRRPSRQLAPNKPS
Structures can show the parent of a compound that is named as a salt.
Reported values of IC50 for individual entries

For orientation, consider the following solved cases.
**Query** Could you share what IC50 was measured for COc1cccc(C(C)n2ccn(-c3ccc(-c4ccnc5[nH]ccc45)cc3)c2=O)c1 (single isomer, unassigned) [Example 325] , tested on ROCK2 (Homo sapiens, UniProt O75116)?
**Result** 20.1 to 200 nM

**Query** # get_value(readout= IC50, system= ROCK2 (Homo sapiens, UniProt O75116)) for COc1cccc(C(C(=O)NCC2CC2)N2CCN(c3ccc(-c4cn[nH]c4)cc3)C2=O)c1 (single isomer, unassigned)
**Result** 200 to 2000 nM

**Query** Test system ROCK2 (Homo sapiens, UniProt O75116); read-out IC50; what value for COc1cccc(CN2CC(=O)N(c3ccc(-c4cn[nH]c4)c(OC)c3)C2=O)c1 [Example 93, TFA] ?
**Result** 20.1 to 200 nM

**Query** Missing value: IC50, ROCK2 (Homo sapiens, UniProt O75116), entry CCC1CN(c2ccc(-c3cn[nH]c3)cc2)C(=O)N1Cc1cccc(OCC2CC2)c1 (stereo not drawn) . Fill in?
**Result** 20.1 to 200 nM

**Query** // lookup IC50 | system=ROCK2 (Homo sapiens, UniProt O75116) | key= COc1cccc(CN2C(=O)N(c3ccc(-c4cn[nH]c4)cc3)CC2(C)C)c1
**Result** < 2 nM

Next:
**Query** Hello, I am looking for reported IC50 with ROCK2 (Homo sapiens, UniProt O75116) for COc1cccc(CN2CCN(c3cc(C)c(-c4cn[nH]c4)cn3)C2=O)c1 . Could you help?
**Result** 20.1 to 200 nM

**Query** Give ROCK2 (Homo sapiens, UniProt O75116) IC50 for COc1cccc(CN2C(=O)N(c3ccc(-c4cn[nH]c4)cc3)CC2C(C)(C)O)c1 (single isomer, unassigned)
**Result** < 2 nM

**Query** What IC50 appears in the records for this compound with ROCK2 (Homo sapiens, UniProt O75116)? COc1cccc(CN2CCN(c3ccc(-c4cn[nH]c4)cn3)C2=O)c1F
**Result** 20.1 to 200 nM

**Query** Find IC50 (ROCK2 (Homo sapiens, UniProt O75116)) for the entry COc1cccc(C(C)N2CCN(c3ccc(-c4cn[nH]c4)c(C)c3)C2=O)c1 (single isomer, unassigned)
**Result** 200 to 2000 nM

**Query** I'm curious: which IC50 was measured for COc1ccc(F)cc1Cn1ccn(-c2ccc(-c3cn[nH]c3)c(OC)n2)c1=O tested on ROCK2 (Homo sapiens, UniProt O75116)?
**Result** 2.1 to 20 nM

**Query** Can you look up IC50 on ROCK2 (Homo sapiens, UniProt O75116) for CNC(=O)C(c1ccccc1)N1CCN(c2ccc(-c3cn[nH]c3)cc2)C1=O (single isomer, unassigned) ?
**Result** 20.1 to 200 nM

**Query** What is its IC50 for ROCK2 (Homo sapiens, UniProt O75116)? Entry: COc1cc(F)cc(C(C)n2ccn(-c3ccc(-c4cn[nH]c4)c(OC)n3)c2=O)c1 (single isomer, unassigned) [Example 397]
**Result** < 2 nM

**Query** Request - read-out IC50 | tested on ROCK2 (Homo sapiens, UniProt O75116) | compound COc1nc(N2CCN(Cc3cccc(F)c3)C2=O)ccc1-c1cn[nH]c1
**Result** < 2 nM

**Query** What IC50 appears in the records for this compound with ROCK2 (Homo sapiens, UniProt O75116)? CCc1nc(N2CCN(Cc3cccc(OCC4CC4)c3)C2=O)ccc1-c1cn[nH]c1
**Result** 20.1 to 200 nM

**Query** Give IC50 (ROCK2 (Homo sapiens, UniProt O75116)) of the following compound: COc1cc(F)cc(Cn2ccn(-c3ccc(-c4cn[nH]c4)c(C)n3)c2=O)c1
**Result** 2.1 to 20 nM
